B1: tRNA (parent)
chain: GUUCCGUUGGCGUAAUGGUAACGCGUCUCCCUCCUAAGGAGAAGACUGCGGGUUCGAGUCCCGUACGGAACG

Variants of: B1
TEST NAME: yeast fitness relative to wild type (ratio to wild type); higher = fitter; tRNA-Arg(CCU), competitive growth, 37 C, YPD
Variants at the floor of the assay were thinned out.
QUANTITY NAME: yeast fitness

>>> experimental_value("A14U G25A")
0.686
>>> experimental_value("A43C U53A")
0.662
>>> experimental_value("A20G G56C G68C")
0.6
>>> experimental_value("A20G A57C")
0.642
>>> experimental_value("G39C C66U")
0.633
>>> experimental_value("G50A A57G")
0.944
>>> experimental_value("C24U C34U C66U")
0.58
>>> experimental_value("A45U C49G")
0.872
>>> experimental_value("C30U A45C A69U")
0.704
>>> experimental_value("C22G A45U")
0.712
>>> experimental_value("U16C U59A")
0.852
>>> experimental_value("G9A U19C C22A")
0.606
>>> experimental_value("U7A A20C A21G G23A")
0.65
>>> experimental_value("C5G C30G C31A G50A U54C U59A")
0.596
>>> experimental_value("C61G C66G")
0.625
>>> experimental_value("C33A G39C G41C G44C")
0.549
>>> experimental_value("C31U U53A G68A")
0.515
>>> experimental_value("U8A U54A C55U G68A A69U")
0.507
>>> experimental_value("G6A C29A C55U")
0.514
>>> experimental_value("U54A C61G")
0.63
>>> experimental_value("U8G C49U")
0.668
>>> experimental_value("C5G A14C G23C G38A G58C A70G")
0.545
>>> experimental_value("U8C G12C")
0.853
>>> experimental_value("U28C C49G")
0.909
>>> experimental_value("C4U A65G")
0.877
>>> experimental_value("C4A A21U")
0.676
>>> experimental_value("A14G A21C")
0.866
>>> experimental_value("C27U G39A G68U")
0.54
>>> experimental_value("G12A C60A")
0.579
>>> experimental_value("C5U A57U")
0.663
>>> experimental_value("C4U A14G A36C C46G C61G")
0.544
>>> experimental_value("G25C C61U")
1.1
>>> experimental_value("A15U A40U G52A G68A")
0.596
>>> experimental_value("C33G A70U")
0.714
>>> experimental_value("C5G C46G")
0.751
>>> experimental_value("A36C C55U")
0.675
>>> experimental_value("C34U C46G C62U")
0.549
>>> experimental_value("A21C C22U G38C A40C C62A")
0.559
>>> experimental_value("C22A C24G G56C")
0.786
>>> experimental_value("G18C U35A A45C C62U")
0.542
>>> experimental_value("U19C A70C")
1.03
>>> experimental_value("G6A C27U")
0.785
>>> experimental_value("C24G C60A")
0.576
>>> experimental_value("C27U C46U G48A A70C")
0.669
>>> experimental_value("A15U A20C U32G A65C")
0.537
>>> experimental_value("C5A C60G")
0.551
>>> experimental_value("U7A U47G")
0.557
